- assay details: Half life in dog liver microsomes
- Type: ADME, Canis lupus familiaris, Microsome
Give log10 of half-life for every item shown.
Scale type: logarithmic (base 10). Underlying half-life unit: min.

For each of the molecules below, state log10 of half-life.
1. COC(=O)Nc1ccc2c(c1)NC(=O)[C@H](C)CCC[C@H](N1CC[C@H](c3c(F)ccc(Cl)c3F)OC1=O)c1cncc-2c1
2. COC(=O)Nc1ccc2c(c1)NC(=O)[C@H](C)CCC[C@H](N1CC[C@H](c3c(F)ccc(Cl)c3F)OC1=O)c1cc-2ccn1
3. COC(=O)Nc1ccc2c(c1)NC(=O)[C@H](C)CCC[C@H](N1CCC(c3c(F)ccc(Cl)c3F)NC1=O)c1cc-2ccn1 (stereo not given in full)

Result block:
1: 1.32; 2: 1.43; 3: 1.43

###

- assay details: Terminal half life in cynomolgus monkey at 0.5 mg/kg, iv
- Assay type: ADME, organism-based, Macaca fascicularis
- condition details: in vivo, read-out: beta t1/2 (converted)
measurement name: half-life (h)
One number for each entry, in h.

Query block: // half-life lookup, key: COC(=O)Nc1ccc2c(c1)NC(=O)[C@H](C)CCC[C@H](N1CC[C@H](c3c(F)ccc(Cl)c3F)OC1=O)c1ncc-2[nH]1
Result block: 1.4

###

- assay details: Apparent volume of distribution at steady-state in cynomolgus monkey at 0.5 mg/kg, iv
- Assay type: ADME, organism-based, Macaca fascicularis
- condition details: in vivo, read-out: Vdss(app)
measurement name: Vd (L/kg)
One number for each entry, in L/kg.

Query block: // Vd lookup, key: COC(=O)Nc1ccc2c(c1)NC(=O)[C@H](C)CCC[C@H](N1CC[C@H](c3c(F)ccc(Cl)c3F)OC1=O)c1ncc-2[nH]1
Result block: 9.2

###

- assay details: AUC in Sprague-Dawley rat at 0.6 mg/kg, iv
- Assay type: ADME, organism-based
- condition details: in vivo
measurement name: AUC (µM·h)
Numbers only, in µM·h.

Query block: // AUC lookup, key: COC(=O)Nc1ccc2c(c1)NC(=O)[C@H](C)CCC[C@H](N1CC[C@H](c3c(F)ccc(Cl)c3F)OC1=O)c1ncc-2[nH]1
Result block: 0.52

###

- assay details: AUC in cynomolgus monkey at 1.5 mg/kg, po
- Assay type: ADME, organism-based, Macaca fascicularis
- condition details: in vivo
measurement name: AUC (µM·h)
Numbers only, in µM·h.

Query block: // AUC lookup, key: COC(=O)Nc1ccc2c(c1)NC(=O)[C@H](C)CCC[C@H](N1CC[C@H](c3c(F)ccc(Cl)c3F)OC1=O)c1ncc-2[nH]1
Result block: 0.263

###

- assay details: AUC in Beagle dog at 0.4 mg/kg, iv
- Type: ADME, organism-based, Canis lupus familiaris
- condition details: in vivo
measurement name: AUC

Query block: // AUC lookup, key: COC(=O)Nc1ccc2c(c1)NC(=O)[C@H](C)CCC[C@H](N1CC[C@H](c3c(F)ccc(Cl)c3F)OC1=O)c1ncc-2[nH]1
Result block: 0.285 µM·h

###

- assay details: Permeability form apical to basolateral side in human Caco2 cells
- Type: ADME, cell-based
- condition details: Caco-2, read-out: permeability
measurement name: Papp A→B (×10⁻⁶ cm/s)
Answers are plain numbers, in ×10⁻⁶ cm/s.

Query block: // Papp A→B lookup, key: COC(=O)Nc1ccc2c(c1)NC(=O)[C@H](C)CCC[C@H](N1CC[C@H](c3c(F)ccc(Cl)c3F)OC1=O)c1ncc-2[nH]1
Result block: 3.8
